// cross-study collection: log10 of Ki for 5-hydroxytryptamine receptor 2A (Homo sapiens)
Lab note - Ki converted to log10 from values in nM.

Answered cases to consult:
>>> quantitative_readout("COc1ccc2c(c1)CC(CN1CCC(C(=O)c3ccc(F)cc3)CC1)CC2=O (racemic)")
1.25
>>> quantitative_readout("C=CCOc1c(OC)cc2c3c1-c1cc(NC(C)=O)ccc1CC3N(C)CC2 (centres undefined)")
3.09

Below: the item to evaluate.
Lookup: What is its log10 of Ki for 5-hydroxytryptamine receptor 2A (Homo sapiens)? Entry: "O=C(NCCCCN1CCN(c2cccc(F)c2)CC1)c1cc2ccccc2cn1"
Found: 1.04
